Experiment: Half life in human liver S9 fraction at 100 uM preincubated for 5 mins followed by glutathione addition measured after 2 hrs by LC-MS/MS analysis
Type: ADME, subcellular
property name: half-life at 100 µM (h)
Answers are plain numbers, in h.

{"columns": ["chemical smiles", "unit info", "half-life at 100 µM"],
 "data": [
  ["CN[C@@H]1[C@H](O)[C@H](NC)[C@H]2O[C@]3(O)[C@H](O[C@@H]2[C@H]1O)O[C@H](C)C[C@H]3NC(=O)Cc1cc(Cl)c(C)cn1", "h", 23]
]}

Moving on to another molecule below.
[ask] Recorded half-life at 100 µM for CN[C@@H]1[C@H](O)[C@H](NC)[C@H]2O[C@]3(O)[C@H](O[C@@H]2[C@H]1O)O[C@H](C)C[C@H]3NC(=O)Cc1ccccn1 , please?
[reply] 38

Just for reference, ChEMBL document CHEMBL3785035 is where these values come from.
